Tested on: early life stage zebrafish (Danio rerio) embryos
Test method notes: Developmental toxicity morphology screen, sealed rotating vial exposure
Assay type: in vivo
Condition summary: SI-T5
Value kind: any effect BMD50 (µM)

>  <Compound>
Cc1cc2ccccc2cc1C [2,3-dimethylnaphthalene]

>  <Numeric result>
46.56

$$$$
>  <Compound>
Cc1cccc2cccc(C)c12 [1,8-dimethylnaphthalene]

>  <Numeric result>
41.15

$$$$
>  <Compound>
CCc1ccc2ccccc2c1 [2-ethylnaphthalene]

>  <Numeric result>
35.16

$$$$
>  <Compound>
Cc1cc2c(C)ccc(C)c2cc1C [1,4,6,7-tetramethylnaphthalene]

>  <Numeric result>
20.47

$$$$
>  <Compound>
CCc1cccc2ccccc12 [1-ethylnaphthalene]

>  <Numeric result>
33.7

$$$$
>  <Compound>
Cc1ccc(C)c2c(C)cccc12 [1,4,5-trimethylnaphthalene]

>  <Numeric result>
19.74

$$$$
>  <Compound>
Cc1cc(C)c2c(C)cccc2c1 [2,4,5-trimethylnaphthalene]

>  <Numeric result>
22.04

$$$$
>  <Compound>
Cc1ccc2cccc(C)c2c1 [1,7-dimethylnaphthalene]

>  <Numeric result>
20.09

$$$$
>  <Compound>
Cc1ccc2c(C)cccc2c1 [1,6-dimethylnaphthalene]

>  <Numeric result>
34.56

$$$$
>  <Compound>
Cc1cc2cccc(C)c2cc1C [1,6,7-trimethylnaphthalene]

>  <Numeric result>
21.39

$$$$
>  <Compound>
Cc1ccc(C)c2ccccc12 [1,4-dimethylnaphthalene]

>  <Numeric result>
24.93

$$$$
>  <Compound>
CC(C)(C)c1ccc2ccc(C(C)(C)C)cc2c1 [2,7-di-tert-butylnaphthalene]

>  <Numeric result>
24.66

$$$$
>  <Compound>
CCc1ccc2cc(CC)ccc2c1 [2,6-diethylnaphthalene]

>  <Numeric result>
18.77

$$$$
>  <Compound>
CCCCc1ccc2ccccc2c1 [2-butylnaphthalene]

>  <Numeric result>
13.76

$$$$
>  <Compound>
Cc1cccc2c(C)cccc12 [1,5-dimethylnaphthalene]

>  <Numeric result>
36.95

$$$$
>  <Compound>
CC(C)c1ccc2ccccc2c1 [2-isopropylnaphthalene]

>  <Numeric result>
19.85

$$$$
